- TESTED SYSTEM: telomerase (Homo sapiens (Human), UniProt O14746)
- Sequence (O14746 whole entry): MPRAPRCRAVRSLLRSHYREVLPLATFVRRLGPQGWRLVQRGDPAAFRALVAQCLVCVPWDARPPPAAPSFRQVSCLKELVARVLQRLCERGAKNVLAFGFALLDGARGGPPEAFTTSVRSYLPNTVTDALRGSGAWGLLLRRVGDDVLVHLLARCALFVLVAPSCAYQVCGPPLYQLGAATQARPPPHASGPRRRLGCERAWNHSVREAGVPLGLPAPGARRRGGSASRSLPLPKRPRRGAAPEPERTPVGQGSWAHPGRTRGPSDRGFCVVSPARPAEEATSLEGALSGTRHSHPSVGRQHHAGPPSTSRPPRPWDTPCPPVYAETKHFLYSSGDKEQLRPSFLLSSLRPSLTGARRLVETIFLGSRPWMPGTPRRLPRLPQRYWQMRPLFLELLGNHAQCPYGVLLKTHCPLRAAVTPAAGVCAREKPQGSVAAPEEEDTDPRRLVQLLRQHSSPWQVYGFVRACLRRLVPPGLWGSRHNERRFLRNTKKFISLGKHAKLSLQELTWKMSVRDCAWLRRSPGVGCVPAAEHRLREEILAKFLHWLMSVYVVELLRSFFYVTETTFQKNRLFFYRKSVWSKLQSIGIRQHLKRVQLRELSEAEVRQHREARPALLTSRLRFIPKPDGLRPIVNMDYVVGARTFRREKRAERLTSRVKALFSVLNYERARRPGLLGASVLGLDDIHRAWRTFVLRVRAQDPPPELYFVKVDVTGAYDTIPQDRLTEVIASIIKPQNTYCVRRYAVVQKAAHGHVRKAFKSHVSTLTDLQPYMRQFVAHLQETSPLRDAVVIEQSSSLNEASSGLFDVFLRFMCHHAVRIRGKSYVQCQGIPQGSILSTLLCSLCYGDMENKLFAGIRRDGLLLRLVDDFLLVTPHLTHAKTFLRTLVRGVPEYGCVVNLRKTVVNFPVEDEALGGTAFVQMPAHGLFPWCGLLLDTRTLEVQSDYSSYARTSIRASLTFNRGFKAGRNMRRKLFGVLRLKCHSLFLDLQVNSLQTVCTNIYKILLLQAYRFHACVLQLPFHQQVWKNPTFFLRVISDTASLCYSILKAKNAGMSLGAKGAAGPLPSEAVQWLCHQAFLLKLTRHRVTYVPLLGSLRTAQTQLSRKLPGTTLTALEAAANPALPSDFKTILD
- EXPERIMENT DESCRIPTION: Primer extension assay for telomerase activity
- Type: biochemical
- Experimental: Purified human telomerase was incubated with d(TTAGGG)3 (SEQ ID NO: 1) and deoxy-nucleoside triphosphates for 90 minutes at 37° C. All reactions were done in the presence of 200 dTTP and 10 μM dATP (50,000 cpm/pmol a-^33P-dATP). Activity was determined by incubating affinity purified telomerase extract with 1 μM primer [d(TTAGGG)3] […] Primer extension products were analyzed on a 15% polyacrylamide gel containing 7 M urea. […]
MEASUREMENT LABEL: Primer Ext. Assay Notes: telomerase substrate / chain terminator

compound=C[C@H](Cn1cnc2c(=O)[nH]c(N)nc21)SCP(=O)(O)OP(=O)(O)OP(=O)(O)O tested_system="telomerase (Homo sapiens (Human), UniProt O14746)" result="Weak chain terminator."
compound="CC(Cn1cnc2c(=O)[nH]c(N)nc21)OCP(=O)(O)OP(=O)(O)OP(=O)(O)O (stereo not drawn) [Compound 142751]" tested_system="telomerase (Homo sapiens (Human), UniProt O14746)" result="Weak chain terminator."
compound="CC(Cn1cnc2c(=O)[nH]c(N)nc21)OCP(=O)(O)OP(=O)(O)OP(=O)(O)O (single isomer, unassigned) [Compound 142692]" tested_system="telomerase (Homo sapiens (Human), UniProt O14746)" result="Chain terminator."
compound="Nc1nc2c(ncn2CC(OCP(=O)(O)OP(=O)(O)OP(=O)(O)O)C(F)(F)F)c(=O)[nH]1 (stereo not drawn)" tested_system="telomerase (Homo sapiens (Human), UniProt O14746)" result="Weak chain terminator."
compound=CC(C)(Cn1cnc2c(=O)[nH]c(N)nc21)OCP(=O)(O)OP(=O)(O)OP(=O)(O)O tested_system="telomerase (Homo sapiens (Human), UniProt O14746)" result="Weak chain terminator."

// returns reported Primer Ext. Assay Notes: telomerase substrate / chain terminator for input Nc1nc2c(ncn2CC(CF)OCP(=O)(O)OP(=O)(O)OP(=O)(O)O)c(=O)[nH]1 (stereo not drawn) Chain terminator.

// returns reported Primer Ext. Assay Notes: telomerase substrate / chain terminator for input CC(Cn1cnc2c(=S)[nH]c(N)nc21)OCP(=O)(O)OP(=O)(O)OP(=O)(O)O (stereo not drawn) [Compound 142752] Weak chain terminator.

// returns reported Primer Ext. Assay Notes: telomerase substrate / chain terminator for input CC(COCP(=O)(O)OP(=O)(O)OP(=O)(O)O)n1cnc2c(=O)[nH]c(N)nc21 (stereo not drawn) Chain terminator.

* * *

- TESTED SYSTEM: telomerase (Homo sapiens (Human))
- EXPERIMENT DESCRIPTION: Primer extension assay for telomerase activity
- CONDITION CONTEXT: read-out: Primer Ext. Assay EC50
MEASUREMENT LABEL: EC50 (µM)

Worked examples follow.
compound="CC(COCP(=O)(O)OP(=O)(O)OP(=O)(O)O)n1cnc2c(=O)[nH]c(N)nc21 (stereo not drawn)" measurement_label=EC50 numeric_value=3.1
compound="CC(Cn1cnc2c(=S)[nH]c(N)nc21)OCP(=O)(O)OP(=O)(O)OP(=O)(O)O (stereo not drawn)" measurement_label=EC50 numeric_value=13.5
compound="Nc1nc2c(ncn2CC(CF)OCP(=O)(O)OP(=O)(O)OP(=O)(O)O)c(=O)[nH]1 (stereo not drawn)" measurement_label=EC50 numeric_value=7.5
compound=C=C(COCP(=O)(O)OP(=O)(O)OP(=O)(O)O)Cn1cnc2c(=O)[nH]c(N)nc21 measurement_label=EC50 numeric_value=1.4

(I) Nc1nc2c(ncn2CCCOCP(=O)(O)OP(=O)(O)OP(=O)(O)O)c(=O)[nH]1
(II) CC(COCP(=O)(O)OP(=O)(O)OP(=O)(O)O)Cn1cnc2c(=O)[nH]c(N)nc21 (stereo not drawn)
(III) CC[C@H](Cn1cnc2c(=O)[nH]c(N)nc21)OCP(=O)(O)OP(=O)(O)OP(=O)(O)O
Ranking field: EC50; order: falling. Output spec: labels arranged per the requested ranking. III, II, I

* * *

- TESTED SYSTEM: telomerase (Homo sapiens (Human))
- EXPERIMENT DESCRIPTION: Primer extension assay for telomerase activity
- Assay type: biochemical
MEASUREMENT LABEL: Primer Ext. Assay Notes: telomerase substrate / chain terminator

molecule="CC(Cn1cnc2c(=S)[nH]c(N)nc21)OCP(=O)(O)OP(=O)(O)OP(=O)(O)O (stereo not shown) [Compound 142761]" result="Chain terminator"
molecule=Nc1nc2c(ncn2CCCOCP(=O)(O)OP(=O)(O)OP(=O)(O)O)c(=O)[nH]1 result="Chain terminator"

* * *

- TESTED SYSTEM: telomerase in HT3 cells (Homo sapiens (Human))
- Sequence (O60832 whole entry partner, one chain of several): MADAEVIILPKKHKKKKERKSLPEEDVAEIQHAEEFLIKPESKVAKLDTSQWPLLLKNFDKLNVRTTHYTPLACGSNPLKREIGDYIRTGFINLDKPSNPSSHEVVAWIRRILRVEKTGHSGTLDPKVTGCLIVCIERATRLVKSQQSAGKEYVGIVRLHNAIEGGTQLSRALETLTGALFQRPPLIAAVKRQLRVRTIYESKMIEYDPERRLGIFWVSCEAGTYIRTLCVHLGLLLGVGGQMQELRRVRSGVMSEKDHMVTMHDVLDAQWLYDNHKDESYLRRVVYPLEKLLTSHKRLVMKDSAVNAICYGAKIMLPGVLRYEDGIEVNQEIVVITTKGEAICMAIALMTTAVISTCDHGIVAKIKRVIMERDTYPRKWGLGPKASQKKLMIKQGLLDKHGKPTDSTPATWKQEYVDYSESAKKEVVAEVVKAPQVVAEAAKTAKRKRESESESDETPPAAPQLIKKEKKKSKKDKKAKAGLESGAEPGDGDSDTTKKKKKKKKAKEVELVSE
- Sequence (Q9NX24 whole entry partner, one chain of several): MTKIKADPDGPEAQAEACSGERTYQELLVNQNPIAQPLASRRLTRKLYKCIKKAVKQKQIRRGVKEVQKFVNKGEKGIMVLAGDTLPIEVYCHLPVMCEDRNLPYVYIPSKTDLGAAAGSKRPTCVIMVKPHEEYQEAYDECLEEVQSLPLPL
- Sequence (Q9NPE3 whole entry partner, one chain of several): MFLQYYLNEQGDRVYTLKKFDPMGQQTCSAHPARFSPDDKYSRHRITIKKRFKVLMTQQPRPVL
- Sequence (Q9NY12 whole entry partner, one chain of several): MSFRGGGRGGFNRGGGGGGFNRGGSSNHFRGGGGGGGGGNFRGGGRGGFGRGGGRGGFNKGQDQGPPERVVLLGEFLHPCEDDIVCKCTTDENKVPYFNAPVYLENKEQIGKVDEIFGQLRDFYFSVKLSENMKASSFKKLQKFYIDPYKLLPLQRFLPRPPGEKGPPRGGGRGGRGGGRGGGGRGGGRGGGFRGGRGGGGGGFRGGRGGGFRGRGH
- Sequence (Q9BUR4 whole entry partner, one chain of several): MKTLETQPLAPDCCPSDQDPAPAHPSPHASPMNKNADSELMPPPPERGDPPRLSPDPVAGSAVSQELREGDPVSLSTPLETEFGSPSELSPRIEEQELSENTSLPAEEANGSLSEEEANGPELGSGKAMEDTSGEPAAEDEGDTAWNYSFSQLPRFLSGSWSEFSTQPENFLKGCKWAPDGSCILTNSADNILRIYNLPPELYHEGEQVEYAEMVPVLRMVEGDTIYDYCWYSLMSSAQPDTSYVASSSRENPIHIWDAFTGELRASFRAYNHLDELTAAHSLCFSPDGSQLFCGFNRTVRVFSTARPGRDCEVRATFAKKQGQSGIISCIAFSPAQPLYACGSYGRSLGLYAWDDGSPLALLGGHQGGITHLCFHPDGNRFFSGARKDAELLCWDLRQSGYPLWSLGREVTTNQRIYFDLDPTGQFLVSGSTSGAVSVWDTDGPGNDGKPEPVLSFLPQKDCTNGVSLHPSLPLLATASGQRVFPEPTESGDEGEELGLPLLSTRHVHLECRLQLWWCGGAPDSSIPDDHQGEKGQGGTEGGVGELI
- EXPERIMENT DESCRIPTION: Ex vivo TRAP assay in HT3 cells
- Assay type: cell-based
- CONDITION CONTEXT: HT3 cells, 3 days; read-out: ExVivo TRAP EC50 (μM)- 3 Day Assay
MEASUREMENT LABEL: EC50 (µM)

Worked examples follow.
compound="CC(Cn1cnc2c(=O)[nH]c(N)nc21)OCP(=O)(O)NCCCNCCCCNCCCNP(=O)(O)COC(C)Cn1cnc2c(=O)[nH]c(N)nc21 (stereo not shown) [compound 142942]" numeric_value=1.84
compound="CC(Cn1cnc2c(=O)[nH]c(N)nc21)OCP(=O)(O)NCCCNCCCCN (stereo not shown) [compound 142812]" numeric_value=5
compound="CC(Cn1cnc2c(=S)[nH]c(N)nc21)OCP(=O)(O)O (stereo not shown) [compound 142694]" numeric_value=7.54

(I) C=C(COCP(=O)(O)O)Cn1cnc2c(=O)[nH]c(N)nc21 [compound 142811]
(II) C=C(COCP(=O)(O)NCCCNCCCCN)Cn1cnc2c(=O)[nH]c(N)nc21 [compound 142873]
(III) CC(Cn1cnc2c(=O)[nH]c(N)nc21)OCP(=O)(O)O (single isomer, unassigned) [compound 142693]
(IV) CCCCCCCCCCNP(=O)(O)COC(C)Cn1cnc2c(=O)[nH]c(N)nc21 (stereo not shown) [compound 142962]
Ranking field: EC50; order: falling. Output spec: labels arranged per the requested ranking. III, II, I, IV

* * *

- TESTED SYSTEM: telomerase (Homo sapiens (Human))
- EXPERIMENT DESCRIPTION: Flash plate (Flashplate) telomerase assay
- Type: biochemical
- CONDITION CONTEXT: affinity purified telomerase extract, 20 μM dGTP; read-out: Flashplate IC 50
pIC50: −log10 of the molar value.
MEASUREMENT LABEL: pIC50

(P) CC(Cn1cnc2c(=O)[nH]c(N)nc21)OCP(=O)(O)OP(=O)(O)OP(=O)(O)O (single isomer, unassigned) [ID#142692]
(Q) CC(Cn1cnc2c(=O)[nH]c(N)nc21)OCP(=O)(O)OP(=O)(O)OP(=O)(O)O (single isomer, unassigned) [ID#142751, PMPG free acid, S form]
// pick min by pIC50: P , Q Field: selected label. Fill in the label of the entry you choose. Q

* * *

- TESTED SYSTEM: telomerase in HT3 cells (Homo sapiens (Human))
- EXPERIMENT DESCRIPTION: Ex vivo TRAP assay in HT3 cells
- CONDITION CONTEXT: HT3 cells, 0.2 μM to 20 μM, two independent experiments; read-out: Ex vivo Assay IC 50
pIC50: −log10 of the molar value.
MEASUREMENT LABEL: pIC50

// returns reported pIC50 for input CC(C)OC(=O)OCOP(=O)(COC(C)Cn1cnc2c(=O)[nH]c(N)nc21)OCOC(=O)OC(C)C (single isomer, unassigned) [ID#142748, PMPG prodrug, S form] < 4.70
